# folding enthalpy values compiled below
ASSAY EXPLANATION: folding enthalpy; higher = less favourable; fluorescence melt of hairpins on a sequencing array, two-state fit
EXPERIMENTAL PARAMETERS: sodium 0.088 M
ASSAY ENDPOINT: folding enthalpy (kcal/mol)

> print(dat)
                                 sequence    assay.endpoint  result
 1  GGGCCAACGAAAGTTCCC (((..(((....))))))  folding enthalpy   -14.4
 2  GAGGACGAAAGTCAGCTC ((((((....)))..)))  folding enthalpy     -15
 3  CGTATGCGGAAACGCACG (((..(((....))))))  folding enthalpy   -9.53
 4  GGTACTGCGAAAGCAACC (((..(((....))))))  folding enthalpy    -9.7
 5              GCGATCTCTCGC ((((....))))  folding enthalpy   -31.1
 6    GACAACGAAAGTTTGTC ((((((....))).)))  folding enthalpy   -27.6
 7  GGGGAGCCGAAAGGCCCC (((..(((....))))))  folding enthalpy   -13.2
 8  GGCCTCGGAAACGGGGTC (.((.((....)).)).)  folding enthalpy   -37.2
 9  GCCTTGGGAAACCAAAGC ((.((((....)))).))  folding enthalpy     -18
10  CGGCGTCGGAAACGACCG (((..(((....))))))  folding enthalpy   -13.8
11  GGGTTGTCGAAAGACCCC (((..(((....))))))  folding enthalpy   -20.5
12  GCAATTCGAAAGAAATGC (((.(((....))).)))  folding enthalpy   -36.8
13  GCCCGGTCGAAAGACGGC (((..(((....))))))  folding enthalpy   -18.1
14      GGAACGGAAACGTTCC ((((((....))))))  folding enthalpy   -40.4
15  GGCGTACCGAAAGGTGCC (((..(((....))))))  folding enthalpy   -33.2
16  GTATAGGGAAACCTATAC (((((((....)))))))  folding enthalpy     -41
17  GTCGTAGGAAACTACAAC ((.((((....)))).))  folding enthalpy     -21
18  GAAAACCCGAAAGGGTTC (((..(((....))))))  folding enthalpy   -8.48
19        GATCGGCAACCGATC ((((((...))))))  folding enthalpy   -36.7
20  GAGCGCGAAAGCGACCTC ((((((....)))..)))  folding enthalpy   -11.8
21      GTGTCAGAAATGACAC ((((((....))))))  folding enthalpy   -35.9
22  GCGACGGGAAACCGCCAC (.(.(((....))).).)  folding enthalpy   -13.4
23  GCAGAGTCGAAAGACTGC (((..(((....))))))  folding enthalpy   -16.7
24  GGTAGACCGAAAGGTACC (((..(((....))))))  folding enthalpy   -19.8
25          CTACGGAAACGTAG (((((....)))))  folding enthalpy   -24.9
